Assay: High-throughput drug toxicity screening in the BPDCN cell line Cal-1 (AID 1224825);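 also: cells exposed to compounds for 48 h; 100% = DMSO and 0% = bortezomib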
Conditions: Cal-1 BPDCN cell viability, qHTS; at 45.8 µM (top of the series) unless noted
Catalogue of compounds with associated viability (% of control)
Readout Label: viability (% of control) (%)

>>> df
                                   compound  reported
0  CCC[C@H](Nc1nc(-c2ccc(NC(=O)NCC)c(OC)c2)ncc1C)c1cccnc1      4.63
1  O=C(O)Cc1cccc(OCCCN(Cc2cccc(C(F)(F)F)c2Cl)CC(c2ccccc2)c2ccccc2)c1       117
2       COc1ccc(Cn2ccc3ccc(C(=O)NO)cc32)cc1      19.7
3  O=C(CCCN1CCN(c2ccc(F)cc2)CC1)NC1c2ccccc2CSc2ccccc21 (stereo not given)      58.7

* * *

Test: Quantitative High-Throughput drug screen in 47 multiple myeloma cell lines against the NCATS MIPE library collection: OCIMY7_PLB cell viability assay (AID 1918987); also: nearly all actives have a fitted effect of over 65% in size
Conditions: OCI-MY7 myeloma viability, CellTiter-Glo ATP, 48 h
Inconclusive results are not listed. The source made the active and inactive calls. Calls come from the whole dose curve; as a rule, active = well fitted cell-killing curve with a large enough effect; inconclusive = small, poorly fitted or top-dose-only effect, or effect the other way; inactive = no such curve, though single readings can be large or run the other way.
Labels: active, inactive

Molecule	Class Assignment
Cc1ccc(C2=Nc3ccc(Cl)cc3OC2)cc1	active
COc1ccc(-c2cc(=O)c3c(O)cc(O[C@@H]4O[C@H](CO[C@@H]5O[C@@H](C)[C@H](O)[C@@H](O)[C@@H]5O)[C@@H](O)[C@H](O)[C@@H]4O)cc3o2)cc1O	active
CN(C)CC[C@H](CSc1ccccc1)Nc1ccc(S(=O)(=O)NC(=O)c2ccc(N3CCN(Cc4ccccc4-c4ccc(Cl)cc4)CC3)cc2)cc1[N+](=O)[O-]	active
Cc1ccccc1C(C(=O)NC1CCCCC1)N(C(=O)CNc1ccc(C#N)cc1)c1cccc(F)c1 (configuration not stated)	inactive
O=C1C(CCC(O)c2ccc(F)cc2)C(c2ccc(O)cc2)N1c1ccc(F)cc1 (configuration not stated)	inactive
C=CC(=O)Nc1cccc(Sc2nc(Nc3ccc(N4CCN(C)CC4)cc3)ncc2Cl)c1	active
CN1CCC(COc2cnc(-c3cccc(Cn4nc(-c5cccc(C#N)c5)ccc4=O)c3)nc2)CC1	active
O=[N+]([O-])c1ccc(Nc2ccccc2-c2ccccc2)c2nonc12	active
Cc1ccc(NC(=O)Nc2cc(C(F)(F)F)ccc2F)cc1Nc1ccc2c(c1)NC(=O)C2=Cc1ccc[nH]1	active
CN1N=C(N)c2cn([C@@H]3O[C@H](COP(=O)(O)O)[C@@H](O)[C@@H]3O)c3ncnc1c23	active
COc1nccc(-c2c(-c3ccc(F)cc3)ncn2C2CCC(O)CC2)n1 (configuration not stated)	inactive
Nc1ccc(-c2ccc3ncc4ccc(=O)n(-c5cccc(C(F)(F)F)c5)c4c3c2)cn1	active
C[C@@H](N)c1ccc(C(=O)Nc2ccnc3[nH]ccc23)cc1	active
CC(=O)Nc1cccc(-n2c(=O)n(C3CC3)c(=O)c3c(Nc4ccc(I)cc4F)n(C)c(=O)c(C)c32)c1	active
Cc1c(C(=O)Nc2ccc(N3C[C@@H](C)O[C@@H](C)C3)nc2)cccc1-c1ccc(OC(F)(F)F)cc1	active
CN1C(=O)C[C@H](C(=O)N[C@@H](Cc2cnc[nH]2)C(=O)N2CCC[C@@H]2C(N)=O)NC1=O	inactive
C=CC[N+]1([C@H]2C[C@H]3[C@@H]4CC[C@H]5C[C@H](O)[C@@H](N6CCOCC6)C[C@]5(C)[C@@H]4CC[C@]3(C)[C@H]2OC(C)=O)CCCC1	inactive
